Assay explanation: Cytotoxicity against human TZM-bl cells assessed as reduction in cell viability after 48 hrs by MTT assay
Type: cell-based
Study conditions: TZM-bl cells
Give measured CC50 at 48 h for each item. Keep answers brief.
Numbers only, in µM.

// for each compound below, give its CC50 at 48 h
1. CC(C)Oc1ccc2cccnc2c1-c1cccc2ccccc12
2. CCN(CC)C(=O)Oc1ccc2cccnc2c1-c1cccc2ccccc12
3. CCN(CC)C(=O)Oc1ccc2ccccc2c1-c1cccc2cccnc12

68.5
95
69.3

====

Tgt: Reverse transcriptase (Moloney murine leukemia virus, UniProt Q83371)
Reported metric: IC50

Below are worked cases with known answers.
| Record smiles | IC50 |
| --- | --- |
| Cc1cc(/C=C/C#N)cc(C)c1Nc1ccnc(Nc2ccc(C#N)cc2)n1 | > 10 µM |
| CC(C)Oc1ccc2cccnc2c1-c1cccc2cccnc12 | > 100 µM |

IC50 recorded for this molecule, "CC(C)Oc1ccc2cccnc2c1-c1cccc2ccccc12" , is > 100 µM
